molecules and their reported Solubility, mM phosphatidylserine
Test: Apparent solubility of phosphatidylserine salts in ethanol (shake flask)
Format: physicochemical
Conditions: 100% ethanol at room temperature, 24 hours, average±SD (N=3)
Output spec: scalar in mM, unitless text.

Some entries whose results are on file:
| molecule | Solubility, mM phosphatidylserine / mM |
| --- | --- |
| CCCCCCCCCCCCCCCCCC(=O)OC[C@H](COP(=O)(O)OC[C@H](N)C(=O)O)OC(=O)CCCCCCCCCCCCCCCCC.N [DSPS ammonium] | 0.034 |
| CCCCCCCCCCCCCCCC(=O)OC[C@H](COP(=O)(O)OC[C@H](N)C(=O)[O-])OC(=O)CCCCCCCCCCCCCCC.[Na+] [DPPS sodium] | 0.201 |
| CCCCCCCCCCCCCCCC(=O)OC[C@H](COP(=O)(O)OC[C@H](N)C(=O)O)OC(=O)CCCCCCCCCCCCCCC.N [DPPS ammonium] | 0.865 |

Query molecule follows.
Q: May I ask what Solubility, mM phosphatidylserine has been recorded for CCCCCCCCCCCCCCCCCC(=O)OC[C@H](COP(=O)(O)OC[C@H](N)C(=O)[O-])OC(=O)CCCCCCCCCCCCCCCCC.[Na+] [DSPS sodium] ?
Result: 0.111

Taken from patent US20260007741A1.
